# System: SF-539 CNS
# Test details: NCI tumour cell line growth inhibition, 48 h
Assay metric: TGI (µM)
Write the number in µM without appending the unit.

Before answering, review these 4 worked examples.
Compound: CC(=O)Nc1ccc(S(=O)(=O)Nc2nc(-c3ccc(Cl)cc3)cc(N3N=C(c4ccc(Br)cc4)CC3c3ccccc3)n2)cc1 (stereo unspecified)
Units: µM
TGI: 31.1
//
Compound: c1cc2c(s1)SSSSS2
Units: µM
TGI: 39.6
//
Compound: O=C1c2[nH]c3ccccc3c2CCN2CCCCC12 (stereo unspecified)
Units: µM
TGI: 40.2
//
Compound: O=c1cc(-c2ccccc2)c2ccc(O)c(CN(CCCl)CCCl)c2o1
Units: µM
TGI: 44.4

### Prompt Send back SF-539 CNS TGI of CCCCCCCCCCCCCC(=O)OC1C(O)C(CO)OC(OC)C1NC(=O)N(CCCl)N=O (stereo unspecified) only.
### Response 63.5

### Prompt Enter recorded TGI with SF-539 CNS for CNCC(=O)Nc1ccc2c(c1)C(=O)c1ccc(NC(=O)CNC)cc1C2=O here.
### Response 11.2
